# TARGET_ENTITY: p70S6K (T412E mutant) (Homo sapiens (Human), UniProt P23443, T412E)
# Sequence (P23443 whole entry T412E): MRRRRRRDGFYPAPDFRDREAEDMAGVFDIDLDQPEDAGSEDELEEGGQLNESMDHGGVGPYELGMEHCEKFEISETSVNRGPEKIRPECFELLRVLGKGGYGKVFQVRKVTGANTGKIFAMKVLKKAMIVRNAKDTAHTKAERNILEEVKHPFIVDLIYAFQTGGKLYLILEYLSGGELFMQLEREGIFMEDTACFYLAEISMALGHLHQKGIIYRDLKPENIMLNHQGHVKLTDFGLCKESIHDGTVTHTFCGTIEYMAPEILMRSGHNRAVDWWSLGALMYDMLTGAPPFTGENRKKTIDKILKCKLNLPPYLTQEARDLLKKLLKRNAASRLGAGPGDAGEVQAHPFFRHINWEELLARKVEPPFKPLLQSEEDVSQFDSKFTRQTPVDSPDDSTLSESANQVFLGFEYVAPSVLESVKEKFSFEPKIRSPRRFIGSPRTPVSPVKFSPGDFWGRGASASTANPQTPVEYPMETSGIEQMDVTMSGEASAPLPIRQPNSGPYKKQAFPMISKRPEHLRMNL
# EXPERIMENTAL_DETAILS: p70S6K enzyme assay
# Assay type: biochemical
# CONDITION: 24 μM ATP, 90 min at 25° C., Caliper mobility shift
IC50 for assorted compounds

>  <COMPOUND>
CN(C)C[C@@H](Nc1nnnc2c(C(N)=O)cccc12)c1ccc(Cl)c(Cl)c1 [Compound 15]

>  <IC50>
< 0.025 µM

$$$$
>  <COMPOUND>
CCNC[C@@H](Nc1ncnc2c(C(N)=O)ccnc12)c1ccc(F)c(C(F)(F)F)c1 [Compound 56]

>  <IC50>
< 0.025 µM

$$$$
>  <COMPOUND>
CNC[C@@H](Nc1ncnc2c(C(N)=O)ccnc12)c1ccc(C(C)C)cc1 [Compound 39]

>  <IC50>
< 0.025 µM

$$$$
>  <COMPOUND>
CNC[C@@H](Nc1ncnc2c(C(N)=O)ccnc12)c1cccc(Cl)c1 [Compound 64]

>  <IC50>
< 0.025 µM

$$$$
>  <COMPOUND>
NC(=O)c1cncc2c(N[C@@H](CN3CCC3)c3ccc(Cl)c(C(F)(F)F)c3)ncnc12 [Compound 19]

>  <IC50>
> 1 µM

$$$$
>  <COMPOUND>
NC(=O)c1cccc2c(NCc3cccc(C(F)(F)F)c3)nnnc12 [Compound 1]

>  <IC50>
0.101 to 0.5 µM

$$$$
>  <COMPOUND>
NC(=O)c1ccnc2c(N[C@H](CN3CC(O)C3)c3ccc(Cl)c(C(F)(F)F)c3)ncnc12 [Compound 70]

>  <IC50>
< 0.025 µM

$$$$
>  <COMPOUND>
CCNC[C@@H](Nc1ncnc2c(C(N)=O)ccnc12)c1ccc(Cl)c(C(F)(F)F)c1 [Compound 33]

>  <IC50>
< 0.025 µM

$$$$
>  <COMPOUND>
CNC[C@@H](Nc1ncnc2c(C(N)=O)ccnc12)c1ccc(OC(F)(F)F)c(Cl)c1 [Compound 74]

>  <IC50>
< 0.025 µM

$$$$
>  <COMPOUND>
CCNC[C@@H](Nc1ncnc2c(C(N)=O)ccnc12)c1ccc(C(F)(F)F)c(F)c1 [Compound 29]

>  <IC50>
< 0.025 µM

$$$$
>  <COMPOUND>
NC(=O)c1cccc2c(NCc3ccccn3)nnnc12 [Compound 5]

>  <IC50>
> 1 µM

$$$$
>  <COMPOUND>
CNC[C@@H](Nc1ncnc2c(C(N)=O)ccnc12)c1cc(F)c(OC)cc1F [Compound 32]

>  <IC50>
< 0.025 µM

$$$$
>  <COMPOUND>
CNC[C@@H](Nc1ncnc2c(C(N)=O)ccnc12)c1ccc(C(F)(F)F)cc1 [Compound 38]

>  <IC50>
< 0.025 µM

$$$$

====

# TARGET_ENTITY: His-AKT (Full Length) (Homo sapiens (Human), UniProt P31749)
# Sequence (P31749 whole entry): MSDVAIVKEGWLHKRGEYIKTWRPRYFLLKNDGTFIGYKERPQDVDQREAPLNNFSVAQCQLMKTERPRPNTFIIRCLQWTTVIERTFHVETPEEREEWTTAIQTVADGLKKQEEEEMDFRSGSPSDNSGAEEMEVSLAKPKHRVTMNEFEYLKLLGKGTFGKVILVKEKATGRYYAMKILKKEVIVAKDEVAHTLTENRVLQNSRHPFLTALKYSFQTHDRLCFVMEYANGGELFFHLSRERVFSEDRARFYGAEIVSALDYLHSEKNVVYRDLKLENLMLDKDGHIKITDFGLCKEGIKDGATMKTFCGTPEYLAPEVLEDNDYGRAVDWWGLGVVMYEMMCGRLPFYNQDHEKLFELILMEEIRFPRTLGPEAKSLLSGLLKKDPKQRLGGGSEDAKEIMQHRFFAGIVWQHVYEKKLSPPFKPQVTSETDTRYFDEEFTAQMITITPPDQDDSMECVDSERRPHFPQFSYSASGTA
# EXPERIMENTAL_DETAILS: AKT/PKB kinase assay
# Assay type: biochemical
# CONDITION: 160 μM ATP, 90 min at 25° C., Caliper mobility shift
pIC50: −log10 of the molar value.
Catalogue of pIC50 readings, one per entry.

>  <MOLECULE>
CNC[C@@H](Nc1ncnc2c(C(N)=O)ccnc12)c1ccc(Cl)c(C)c1

>  <pIC50>
> 7.60

$$$$
>  <MOLECULE>
CCNC[C@@H](Nc1ncnc2c(C(N)=O)ccnc12)c1ccc(C(F)(F)F)c(C(F)(F)F)c1

>  <pIC50>
> 7.60

$$$$
>  <MOLECULE>
CN(C)C[C@@H](Nc1ncnc2c(C(N)=O)ccnc12)c1ccc(Cl)c(F)c1

>  <pIC50>
7.00 to 7.60

$$$$
>  <MOLECULE>
Cc1cc([C@@H](CN2CCC2)Nc2ncnc3c(C(N)=O)ccnc23)ccc1Cl

>  <pIC50>
> 7.60

$$$$
>  <MOLECULE>
CN(C)C[C@@H](Nc1nnnc2c(C(N)=O)cccc12)c1ccc(Cl)c(Cl)c1

>  <pIC50>
> 7.60

$$$$
>  <MOLECULE>
CN(C)C[C@@H](Nc1nnnc2c(C(N)=O)cccc12)c1ccc(Cl)c(C(F)(F)F)c1

>  <pIC50>
> 7.60

$$$$
>  <MOLECULE>
NC(=O)c1cccc2c(NCc3ccc(Cl)c(Cl)c3)nnnc12

>  <pIC50>
< 6.00

$$$$
>  <MOLECULE>
NC(=O)c1cccc2c(NCc3cccc(F)c3)nnnc12

>  <pIC50>
< 6.00

$$$$
>  <MOLECULE>
CCNC[C@@H](Nc1ncnc2c(C(N)=O)ccnc12)c1ccc(F)c(Cl)c1

>  <pIC50>
7.00 to 7.60

$$$$
>  <MOLECULE>
CNC[C@@H](Nc1ncnc2c(C(N)=O)ccnc12)c1ccc(Cl)cc1

>  <pIC50>
7.00 to 7.60

$$$$
>  <MOLECULE>
CNC[C@@H](Nc1ncnc2c(C(N)=O)ccnc12)c1cccc(Br)c1

>  <pIC50>
> 7.60

$$$$
